System: SNB-78 CNS
Test: NCI tumour cell line growth inhibition, 48 h
VALUE KIND: TGI

Cc1ccc(C(=O)/C=C/c2ccccc2Cl)cc1 | 46.8 µM
CC(C)NC(C)Cc1ccccc1 (stereo unspecified) | > 100 µM
C=C(C)C1CC[C@]2(C(=O)O)CCC3(C)[C@H](CCC4[C@@]5(C)CC[C@H](OC6OC(CO)C(O)C6OC6OC(C)C(O)C(O)C6O)[C@@](C)(CO)C5CC[C@]43C)C12 (stereo partly specified) | > 100 µM
Cc1cccc(NC(=O)CC2C(=O)Nc3ccccc3S2(=O)=O)c1C (stereo unspecified) | 77.3 µM
CSc1s[s+]c(SC)c1[O-] | > 100 µM

Requested field: TGI. Item: `CCC(C)(C)NC1=C(NC(C)=O)C(=O)c2ccccc2C1=O`
> 75 µM

Requested field: TGI. Item: `Cc1ccc(NC(=O)SCCC(=O)O)cc1NC(=O)SCCC(=O)O`
> 100 µM

Requested field: TGI. Item: `Cc1oc2c(c1C(=O)c1ccccc1)C(=O)c1ccccc1C2=O`
> 100 µM

====

Test system: SK-MEL-28 melanoma
Assay: NCI tumour cell line growth inhibition, 48 h; in the data active = GI50 below about 0.43 µM; inactive = the rest
// classify into y = active, n = inactive

Examples with answers:
Cc1c2c(cc[n+]1Cc1ccccc1)c1ccc(OCC3CCCCC3)cc1n2CC1CCCCC1 | n
COc1ccc2[nH]cc(/C=C3\C(=O)Nc4ccccc43)c2c1 | n
O=c1cccc(C#CCCCCOC2CCCO2)o1 (configuration not stated) | n
C[C@]12CC[C@H]3[C@@H](C[C@@H]4SC(Nc5cccc(F)c5)=N[C@@]45CC(=O)CC[C@]35C)[C@@H]1CCC2=O | n
CCN(C)S(=O)(=O)Nc1cccc(Nc2ncnc3cc(NC(=O)CCl)ccc23)c1Cl | n

Called result for `Clc1ccc2c(NCCCN3CCN(c4nc(-n5ccnc5)nc5ccccc45)CC3)ccnc2c1`
n

Called result for `NC(N)=NC(N)=NCCc1ccccc1`
n

Called result for `O=C(Nc1ccc(-n2cc(-c3ccncc3)c(-c3ccc(Cl)c(O)c3)n2)cc1)c1cc(Cl)cc(Cl)c1`
n

Called result for `COC(=O)c1c2c(c(C)[n+]([O-])c1C)C(=O)C(NCc1ccc(F)c(Cl)c1)=CC2=O`
n

Called result for `O=C1c2cccc3c(N4CCN(c5ccc6c7c(cccc57)C(=O)N(CCN5CCNCC5)C6=O)CC4)ccc(c23)C(=O)N1CCN1CCNCC1`
n

Called result for `COC(=O)/C(=C/N1CCN(C(=O)c2ccco2)C1=S)C(C)=O`
n

Called result for `Cc1cc(NC(=O)CCc2ccc(N3C(N)=NC(N)=NC3(C)C)cc2)ccc1S(=O)(=O)F`
n

Called result for `Nc1cc(C(F)F)c(-c2nc(N3[C@@H]4CC[C@H]3COC4)nc(N3[C@@H]4CC[C@H]3COC4)n2)cn1`
y

====

TGI for assorted compounds
Test system: HT29 colon
Assay: NCI tumour cell line growth inhibition, 48 h

Cc1ccc(NC(=O)SCCC(=O)O)cc1NC(=O)SCCC(=O)O | > 100 µM
Nc1cc(C(F)F)c(-c2nc(N3[C@@H]4CC[C@H]3COC4)nc(N3[C@@H]4CC[C@H]3COC4)n2)cn1 | > 100 µM
COC(=O)/C(=C/N1CCN(C(=O)c2ccco2)C1=S)C(C)=O | 46 µM
Cc1ccc(C(=O)/C=C/c2ccccc2Cl)cc1 | 29.7 µM
COc1ccc(OC)c(CCc2cc(OC)c(OC)cc2C)c1 | > 100 µM
C=CC1=C(C)C2=NC1=CC1=NC(=C(CC)/C1=C/O)C=C1C=C3C(=O)C(C(=O)OC)C(=C4NC(=C2)C(C)C4CCC(=O)OC/C=C(\C)CCCC(C)CCCC(C)CCCC(C)C)C3=N1 (centres undefined) (tested in a mixture with another compound) | > 100 µM
CCCCCCCCCCCCCCCCCCNc1ccn(C2OC(CO)C(OP(=O)(O)OCC3CCC(n4ccc(N)nc4=O)O3)C2O)c(=O)n1 (centres undefined) | > 100 µM
Cc1c2n(c3ccccc13)CC1C2N(C)OC1(C)C (centres undefined) | > 100 µM

For the next question, use this compound.
Requested field: TGI. Item: `O=S(=O)(Nc1ccccc1S(=O)(=O)c1ccccc1)c1ccccc1`
> 100 µM

The origin of these recorded values is PubChem BioAssay (NCI).
